Each recorded value in this set is attributed to patent US20120077731A1.

# Lookup of reported IC50 (nM) XG-1 keyed by entry
- tgt: T1, Human membrane IL-6R on cells (human, UniProt P08887 20-468)
- T1 sequence (looked up): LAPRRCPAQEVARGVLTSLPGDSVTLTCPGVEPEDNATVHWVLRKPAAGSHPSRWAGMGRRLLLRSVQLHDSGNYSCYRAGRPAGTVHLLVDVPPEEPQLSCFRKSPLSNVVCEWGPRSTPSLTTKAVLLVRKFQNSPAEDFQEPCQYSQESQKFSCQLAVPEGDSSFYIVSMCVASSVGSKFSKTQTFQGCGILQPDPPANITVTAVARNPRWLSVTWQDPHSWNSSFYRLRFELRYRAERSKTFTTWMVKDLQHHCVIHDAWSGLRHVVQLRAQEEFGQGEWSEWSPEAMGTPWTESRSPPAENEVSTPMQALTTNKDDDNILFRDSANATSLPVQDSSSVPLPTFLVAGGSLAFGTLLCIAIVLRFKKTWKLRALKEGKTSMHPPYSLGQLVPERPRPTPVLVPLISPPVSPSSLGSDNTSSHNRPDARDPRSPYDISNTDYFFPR
- test description: cell-based or functional assay
Lab book: enter the figure in nM, no units written.

Value lookup for IC50 (nM) XG-1; key = IL6R09 (VHH, also called PMP34G9; not shown: C-terminal c-myc and (His)6 tags) VHH: EVQLVESGGGLVQAGGSLRLSCAASGRTSSSYDMTWYRQVPGKEREFVAVISWSGGSTYYADSVKGRFTISRDNAKNTVYLQMNSLKPEDTAIYYCNAYTGGGDDYWGQGTQVTVSS
2.7
